Biological target: Aspartate--tRNA(Asp/Asn) ligase (Mycobacterium tuberculosis (strain ATCC 25618 / H37Rv)) (UniProt P9WFW3)
Sequence (P9WFW3 whole entry): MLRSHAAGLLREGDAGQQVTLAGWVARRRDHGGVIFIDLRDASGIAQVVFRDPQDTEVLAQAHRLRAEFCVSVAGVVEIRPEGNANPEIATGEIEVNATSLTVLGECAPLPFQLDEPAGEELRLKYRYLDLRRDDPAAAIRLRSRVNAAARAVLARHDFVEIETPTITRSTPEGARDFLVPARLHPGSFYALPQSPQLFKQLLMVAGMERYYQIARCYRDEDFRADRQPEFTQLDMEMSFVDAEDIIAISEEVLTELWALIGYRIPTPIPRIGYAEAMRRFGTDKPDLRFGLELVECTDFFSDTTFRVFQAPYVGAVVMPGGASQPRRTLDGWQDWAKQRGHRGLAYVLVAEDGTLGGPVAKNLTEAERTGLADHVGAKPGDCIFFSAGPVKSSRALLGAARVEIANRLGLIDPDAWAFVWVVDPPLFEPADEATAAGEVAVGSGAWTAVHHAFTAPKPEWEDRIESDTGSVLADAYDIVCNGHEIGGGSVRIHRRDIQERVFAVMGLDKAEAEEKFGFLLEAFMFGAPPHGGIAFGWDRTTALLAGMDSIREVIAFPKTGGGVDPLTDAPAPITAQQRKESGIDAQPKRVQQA
Experiment: Assay for Asp RNA synthetase-1 from Mycobacterium tuberculosis
Type: functional
Set-up: scale not given: in the data most compounds retested in dose-response had high values
Conditions: 30 µM
Assignment: determine reported Percent Effect for the given compounds.
One number for each entry, in %.

Hi! Can you tell me Percent Effect for each of these compounds?
1. CN(C)C(=O)CN1C[C@@H]2CC[C@H](C1)N(C(=O)Cc1ccccc1Cl)C2
2. CCc1noc(C(C)N(C)CC(=O)Nc2cccc(C)n2)n1 (centres undefined)
3. Cc1noc(C)c1C(=O)NCC(O)c1ccc(F)cc1F (centres undefined)
4. C[C@@H]1C[C@@H]2CCN(C(=O)c3cnccn3)C[C@H]2O1

A)
1: 1.5; 2: -1.61; 3: -2.01; 4: 0.69

Hi! Can you tell me Percent Effect for each of these compounds?
1. CC(O)CNCc1ccc(OCc2ccc3c(c2)OCCO3)cc1 (centres undefined)
2. Cc1cccc(-c2noc(CN3CCC(N4CCNC4=O)CC3)n2)c1
3. CC(NC(=O)NCc1ccc(Cl)cc1)c1ccccn1 (centres undefined)
4. COC[C@@H]1CC[C@H]2[C@H](CCN2C(=O)c2ccncc2F)O1
5. CN(Cc1nnc(C2CC2)n1C)C1CCN(Cc2ccc(F)cc2)C1 (centres undefined)
6. Cc1cc(-c2nn(C)c(Cl)c2CN2CCOCC(O)C2)no1 (centres undefined)
7. CN(C)C(=O)CN1CCCC2(CCN(c3ccsc3)C2=O)C1 (centres undefined)
8. CCCN1CCN(C(=O)C(C)n2cc(Br)cn2)CC1 (centres undefined)

A)
1.08
0.152
0.364
3.94
11.8
-2.42
2.4
5.74

Hi! Can you tell me Percent Effect for each of these compounds?
1. COc1ccc(OCC(=O)NS(=O)(=O)c2cc(F)ccc2F)cc1
2. Cc1ccc(N2CCCC(NCC(=O)NC3CCOCC3)C2)nn1 (centres undefined)
3. CNS(=O)(=O)CCCN1CCCC1c1cc(C)on1 (centres undefined)
4. CCC(O)CN1CCN(C(=O)c2sccc2OC)CC1 (centres undefined)

A)
[-1.01, 5.08, 1.49, 0.995]

Hi! Can you tell me Percent Effect for each of these compounds?
1. CCC(=O)Nc1ccc2c(c1)CN(C(=O)c1ccco1)CC2
2. Cc1ccc(NC(=O)Cn2cc(I)cn2)cc1
3. CCc1cnc(N2CC3(CCN(Cc4ccsc4)C3)C2)nc1
4. CCC1=N[C@@]2(CC[C@@H]3CN(C(=O)NCc4ccccc4)C[C@@H]32)C(=O)N1
5. CC(C)c1nnc(CN2CCCC2Cn2cncn2)o1 (centres undefined)
6. CO[C@H]1CCN(c2ncccn2)[C@H]1Cc1ccccc1
7. CC(C1CC1)N(C(=O)NCCCn1nc2ccccn2c1=O)C1CC1 (centres undefined)
8. Cc1cc(CNC(=O)N2CCCN(Cc3ccccc3)CC2)no1

A)
1. -3.28
2. 1.25
3. 14.2
4. 1.75
5. -1.37
6. 1.75
7. 1.26
8. -4.23
